Target: Glycogen synthase kinase-3 beta (Homo sapiens)
Sequence (P49841 whole entry): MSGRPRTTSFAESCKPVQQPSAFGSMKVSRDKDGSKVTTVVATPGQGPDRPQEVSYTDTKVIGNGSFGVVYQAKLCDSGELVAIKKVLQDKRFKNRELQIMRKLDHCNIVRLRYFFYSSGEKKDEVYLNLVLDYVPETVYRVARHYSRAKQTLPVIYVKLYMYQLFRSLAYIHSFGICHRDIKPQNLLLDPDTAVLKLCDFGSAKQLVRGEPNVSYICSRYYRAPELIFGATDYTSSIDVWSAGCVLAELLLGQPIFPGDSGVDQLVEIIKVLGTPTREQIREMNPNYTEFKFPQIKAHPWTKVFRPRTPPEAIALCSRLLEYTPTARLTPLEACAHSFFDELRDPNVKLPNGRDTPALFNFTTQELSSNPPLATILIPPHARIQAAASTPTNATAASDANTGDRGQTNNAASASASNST
pIC50: −log10 of the molar value.

smilesNotation: CNC(=O)c1sc(-c2ccnc(NC(=O)C3CC3)c2)nc1OCCc1cn(-c2c3c(nc4ccccc24)CCCC3)nn1
subjectOfTest: Glycogen synthase kinase-3 beta (Homo sapiens)
pIC50: 7.29

smilesNotation: CNC(=O)c1sc(-c2ccnc(NC(=O)C3CC3)c2)nc1OCCCc1cn(CCNc2c3c(nc4ccc(OC)cc24)CCCC3)nn1
subjectOfTest: Glycogen synthase kinase-3 beta (Homo sapiens)
pIC50: 7.84

smilesNotation: COc1nc(-c2ccnc(NC(=O)C3CC3)c2)sc1C(N)=O
subjectOfTest: Glycogen synthase kinase-3 beta (Homo sapiens)
pIC50: 7.76

smilesNotation: CNC(=O)c1sc(-c2ccnc(NC(=O)CNCCNc3c4c(nc5ccc(OC)cc35)CCCC4)c2)nc1OCC1CC1
subjectOfTest: Glycogen synthase kinase-3 beta (Homo sapiens)
pIC50: 7.41

smilesNotation: CCCNC(=O)c1sc(-c2ccnc(NC(=O)CNCCNc3c4c(nc5ccccc35)CCCC4)c2)nc1OCC1CC1
subjectOfTest: Glycogen synthase kinase-3 beta (Homo sapiens)
pIC50: 6.62

smilesNotation: CNC(=O)c1sc(-c2ccnc(NC(=O)CNCCCCNc3c4c(nc5ccccc35)CCCC4)c2)nc1OCC1CC1
subjectOfTest: Glycogen synthase kinase-3 beta (Homo sapiens)
pIC50: 7.38

smilesNotation: CNC(=O)c1sc(-c2ccnc(NC(=O)CNCCCCCCNc3c4c(nc5ccccc35)CCCC4)c2)nc1OCC1CC1
subjectOfTest: Glycogen synthase kinase-3 beta (Homo sapiens)
pIC50: 7.21

smilesNotation: CNC(=O)c1sc(-c2ccnc(NC(=O)C3CC3)c2)nc1OCCOCc1cn(CCNc2c3c(nc4ccccc24)CCCC3)nn1
subjectOfTest: Glycogen synthase kinase-3 beta (Homo sapiens)
pIC50: 7.68
